pIC50: −log10 of the molar value.
// read-out pIC50, gathered for Neuromedin-K receptor (Homo sapiens) from published studies

compound: CC(C)CCNC(=O)C(C)(Cc1ccccc1)NC(=O)[C@H](Cc1ccccc1)NC(=O)OC(C)(C)C (mixture of isomers)
operator: =
pIC50: 6.91
--
compound: COc1ccc(CCCCNC(=O)[C@@](C)(Cc2ccccc2)NC(=O)[C@H](Cc2ccccc2)NC(=O)OC(C)(C)C)cc1
operator: =
pIC50: 7.08
--
compound: CC(C)C(OC(=O)N[C@](C)(Cc1ccccc1)C(=O)N[C@@H](C)c1ccccc1)c1ccc(F)cc1 (stereo partly shown)
operator: =
pIC50: 6.01
--
compound: CCOc1cc(C2NC(=O)NC(c3ccccc3)=C2c2cccc(C)c2)cc([N+](=O)[O-])c1O (stereo not shown)
operator: ≥
pIC50: 6.00
--
compound: CC(C)(C)OC(=O)N[C@@H](Cc1ccccc1)C(=O)NC(C)(Cc1ccccc1)C(=O)NCCc1ccc(Cl)cc1 (mixture of isomers)
operator: =
pIC50: 6.85
--
compound: CC1(C)CCc2ccccc2C1OC(=O)N[C@](C)(Cc1ccccc1)C(=O)NCCCCCCCCC(N)=O (stereo partly shown)
operator: =
pIC50: 6.99
--
compound: CC(Cc1ccccc1)(NC(=O)[C@H](Cc1ccccc1)NC(=O)OCC1CCCCC1)C(N)=O (mixture of isomers)
operator: =
pIC50: 5.91

###

// read-out pIC50, gathered for Neuromedin-K receptor (Homo sapiens) from published studies
pIC50: −log10 of the molar value.
endpoint: pIC50

compound: CCOc1cc(C2NC(=O)NC(c3ccccc3)=C2c2ccccc2)cc2oc(=O)[nH]c12 (stereo not drawn)
endpoint: pIC50
operator: ≥
assayResult: 6.00
--
compound: CCOc1cc(C2C(c3ccccc3)=C(c3ccccc3)NC(=O)N2C)cc([N+](=O)[O-])c1O (stereo not drawn)
endpoint: pIC50
operator: ≥
assayResult: 6.00
--
compound: CC(C)C(OC(=O)N[C@](C)(Cc1ccccc1)C(=O)NCCCCCCCCC(N)=O)c1ccc(Cl)cc1 (stereo partly drawn)
endpoint: pIC50
operator: =
assayResult: 6.59
--
compound: CCOc1cc(C2NC(=O)NC(c3ccccc3)=C2c2ccccc2)cc(C#N)c1O (stereo not drawn)
endpoint: pIC50
operator: ≥
assayResult: 6.00
--
compound: CC(C)(C)OC(=O)N[C@@H](Cc1ccccc1)C(=O)NC(C)(Cc1cccc(Cl)c1)C(N)=O (mixture of isomers)
endpoint: pIC50
operator: =
assayResult: 5.87
--
compound: CC(C)[C@@H](OC(=O)N[C@](C)(Cc1ccccc1)C(=O)NC(C)(C)c1ccccc1)c1ccccc1
endpoint: pIC50
operator: =
assayResult: 6.94
--
compound: CC(C)C(OC(=O)NC(C)(Cc1cccc(F)c1F)C(=O)NCCCOCCCNC(N)=O)c1ccccc1 (stereo not drawn)
endpoint: pIC50
operator: =
assayResult: 7.52
--
compound: Cc1cc(Cl)c(COc2cccc3c(-n4cc(F)cn4)cc(C)nc23)c(Cn2cccc(C#N)c2=O)n1
endpoint: pIC50
operator: =
assayResult: 5.96
--
compound: CC(=O)NCCNC(=O)C(C)(Cc1ccccc1)NC(=O)[C@H](Cc1ccccc1)NC(=O)OC(C)(C)C (mixture of isomers)
endpoint: pIC50
operator: =
assayResult: 6.74
--
compound: CCOc1cc([C@@H]2NC(=O)NC(c3cccnc3)=C2c2ccccc2)cc([N+](=O)[O-])c1O
endpoint: pIC50
operator: =
assayResult: 4.26
--
compound: CC(C)COC(=O)N[C@@H](Cc1ccccc1)C(=O)NC(C)(Cc1ccccc1)C(N)=O (mixture of isomers)
endpoint: pIC50
operator: =
assayResult: 5.88
--
compound: C[C@](Cc1ccccc1)(NC(=O)OC1CCCCc2ccccc21)C(=O)NCCCCCCCCC(N)=O (stereo partly drawn)
endpoint: pIC50
operator: =
assayResult: 7.74
--
compound: CC(C)[C@H](OC(=O)NC(C)(Cc1cc2ccccc2o1)C(=O)NCCCCCCCNC(N)=O)c1ccccc1 (single isomer, unassigned)
endpoint: pIC50
operator: =
assayResult: 7.04
--
compound: CCOc1cc([C@H]2NC(=O)NC(c3ccccc3)=C2c2ccccc2)cc([N+](=O)[O-])c1O
endpoint: pIC50
operator: =
assayResult: 6.96
